The entries below pair compounds with IC50 values for Prostaglandin G/H synthase 2 (Ovis aries, UniProt P79208), as found in several publications.
Numeric answer only, unit nM assumed.

Completed entries (count: 5):
compound	units-text	IC50
COc1ccc(C2C=C(c3ccc(S(C)(=O)=O)cc3)NC3=C2C(=O)CC(C)(C)C3)cc1 (stereo not drawn)	nM	170
CC(C(=O)SC1CCCCC1)c1cccc(C(=O)c2ccccc2)c1 (stereo not drawn)	nM	660
COC(=O)C1=C(C)NC2=C(C(=O)CC(C)(C)C2)C1c1ccc(S(C)(=O)=O)cc1 (stereo not drawn)	nM	480
CS(=O)(=O)c1ccc(-c2cc(Cn3ccnc3)c3cccc(-c4ccccc4)c3n2)cc1	nM	71
CC1(C)CC(=O)C2=C(C1)NC(c1ccc([N+](=O)[O-])cc1)=CC2c1ccc(S(C)(=O)=O)cc1 (stereo not drawn)	nM	24900

Then this compound:
Ask: May I ask what IC50 has been recorded for CCC1=C(C(=O)OC)C(c2ccc(S(C)(=O)=O)cc2)C2=C(CC(C)(C)CC2=O)N1 (stereo not drawn) ?
Reply: 590
